Recorded values, source patent US20240293512A1.

target: human GCG receptor (human, UniProt P47871 26-477); experiment: cell-based or functional assay
Sequence (P47871 26-477): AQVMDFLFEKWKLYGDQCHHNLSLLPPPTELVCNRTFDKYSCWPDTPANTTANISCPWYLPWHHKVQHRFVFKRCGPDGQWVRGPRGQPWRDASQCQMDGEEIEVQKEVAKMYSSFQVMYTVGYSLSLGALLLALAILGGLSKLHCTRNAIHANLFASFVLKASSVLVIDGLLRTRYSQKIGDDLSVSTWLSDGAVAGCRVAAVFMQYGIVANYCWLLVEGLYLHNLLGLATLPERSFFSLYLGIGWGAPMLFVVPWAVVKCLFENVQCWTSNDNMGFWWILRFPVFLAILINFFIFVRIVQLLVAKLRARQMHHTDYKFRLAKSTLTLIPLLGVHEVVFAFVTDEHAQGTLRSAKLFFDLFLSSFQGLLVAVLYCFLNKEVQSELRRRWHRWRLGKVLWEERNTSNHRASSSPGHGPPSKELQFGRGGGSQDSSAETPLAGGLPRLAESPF
Bridge positions count the residues as written; N and C are the ends. Square brackets hold non-standard residues; d marks the D form. Ends that are not written are not given here. * marks the point of attachment. Acetyl(2-(4-imidazolyl)) = O=C(Cc1c[nH]cn1)*; Aib = CC(C)(N)C(=O)O
Listing of entries alongside the reported In vitro activity compared with native peptide (%) vs Glucagon (cAMP EC50).
recorded metric: In vitro activity compared with native peptide (%) vs Glucagon (cAMP EC50)

1. H[Aib]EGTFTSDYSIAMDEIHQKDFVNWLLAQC (bridge 16-20) [triple agonist of SEQ ID NO: 53] | 8.4%
2. [Acetyl(2-(4-imidazolyl))]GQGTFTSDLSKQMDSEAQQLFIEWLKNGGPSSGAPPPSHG [triple agonist of SEQ ID NO: 16] | < 0.1%
3. H[Aib]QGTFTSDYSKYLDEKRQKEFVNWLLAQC (bridge (positions not given here); also: ring formation between two underlined residues) [triple agonist of SEQ ID NO: 56] | 4.9%
4. {Acetyl(2-(4-imidazolyl))}-[Aib]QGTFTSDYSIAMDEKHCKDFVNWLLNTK (bridge 15-19) [triple agonist of SEQ ID NO: 60] | < 0.1%
5. H[Aib]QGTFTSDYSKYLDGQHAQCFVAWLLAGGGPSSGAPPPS [triple agonist of SEQ ID NO: 39] | 0.53%
